- target: MRP4 (ABCC4) (Homo sapiens)
- Sequence (O15439 whole entry): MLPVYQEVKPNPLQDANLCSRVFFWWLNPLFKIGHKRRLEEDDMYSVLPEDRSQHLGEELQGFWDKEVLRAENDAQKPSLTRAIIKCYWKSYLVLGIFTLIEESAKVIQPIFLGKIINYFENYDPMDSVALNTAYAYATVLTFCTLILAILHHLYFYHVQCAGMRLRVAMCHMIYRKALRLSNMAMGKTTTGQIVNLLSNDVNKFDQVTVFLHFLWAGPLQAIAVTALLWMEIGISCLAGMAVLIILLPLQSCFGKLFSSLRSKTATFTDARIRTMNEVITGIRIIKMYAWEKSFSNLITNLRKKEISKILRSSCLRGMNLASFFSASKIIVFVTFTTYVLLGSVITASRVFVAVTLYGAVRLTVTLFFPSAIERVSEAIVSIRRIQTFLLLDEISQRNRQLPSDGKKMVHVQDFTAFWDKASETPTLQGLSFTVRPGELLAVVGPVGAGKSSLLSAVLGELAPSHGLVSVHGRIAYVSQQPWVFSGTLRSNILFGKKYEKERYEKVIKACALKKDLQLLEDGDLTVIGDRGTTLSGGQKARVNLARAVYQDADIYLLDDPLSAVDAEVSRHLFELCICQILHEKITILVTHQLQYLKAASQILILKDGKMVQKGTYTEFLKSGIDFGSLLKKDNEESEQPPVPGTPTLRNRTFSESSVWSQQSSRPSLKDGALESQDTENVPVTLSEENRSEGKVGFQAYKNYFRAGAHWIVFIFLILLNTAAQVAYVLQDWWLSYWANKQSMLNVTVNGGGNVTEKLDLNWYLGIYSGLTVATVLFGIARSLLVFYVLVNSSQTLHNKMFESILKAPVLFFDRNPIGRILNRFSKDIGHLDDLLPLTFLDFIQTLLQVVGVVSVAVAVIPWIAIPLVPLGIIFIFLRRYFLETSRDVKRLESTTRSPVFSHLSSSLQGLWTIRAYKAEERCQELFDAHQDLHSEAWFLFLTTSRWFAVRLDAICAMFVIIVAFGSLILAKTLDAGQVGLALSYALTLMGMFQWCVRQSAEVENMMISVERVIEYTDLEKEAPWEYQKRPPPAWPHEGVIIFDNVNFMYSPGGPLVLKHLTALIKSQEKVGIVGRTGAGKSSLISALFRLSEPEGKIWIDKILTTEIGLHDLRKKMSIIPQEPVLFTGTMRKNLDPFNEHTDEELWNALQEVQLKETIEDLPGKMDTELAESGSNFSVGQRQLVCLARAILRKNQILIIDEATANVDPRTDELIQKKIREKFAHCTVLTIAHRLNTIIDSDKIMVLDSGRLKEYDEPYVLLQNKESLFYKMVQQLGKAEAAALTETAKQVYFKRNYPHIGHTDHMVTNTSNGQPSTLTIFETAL
- assay info: TP_TRANSPORTER: inhibition of E217betaG uptake (E217betaG: 30 uM, Zaprinast: 100uM) in MRP4-expressing HEK293 cells
- Assay type: functional, cell-based
- Design: scale not given: the % may be the effect or the level left
- condition summary: probe E217betaG (30 uM), read-out: Activity
endpoint label: activity at 100 µM (%)
Answer format: numeric, % implied, no suffix.

[[record]]
smiles_text = "Nc1nc2c(ncn2[C@@H]2O[C@@H]3COP(=O)(O)O[C@H]3[C@H]2O)c(=O)[nH]1"
value_observed = 48


Dear colleague, I am looking for the recorded activity at 100 µM of the following compound: `CCCOc1ccccc1-c1nc2nn[nH]c2c(=O)[nH]1`
7
